# Measurement Protocol: SRA737 plasma and tumor concentrations in HT29 xenograft model
# Type: in vivo
# Applied Conditions: mouse, tumor, oral; HT29 xenograft; Dose 100 mg/kg; read-out: Tumor (24 h)
# Description: For each dose, columns from left to right are concentrations in plasma at 6 hours, plasma at 24 hours, tumor at 6 hours, and tumor at 24 hours, respectively. The effect of SRA737 on Gemcitabine induced Chk1 S296 autophosphorylation was assessed as described in Walton et al. (Oncotarget. 2016 Jan. 19; 7(3): 2329-2342), herein incorporated by reference for all it teaches. […]
Reported Endpoint: concentration at 24 h (µM)
Respond numerically; units are µM and should not be typed.

Prompt: Entry under review: N#Cc1cnc(Nc2cc(NCC3CNCCO3)c(C(F)(F)F)cn2)cn1 (stereo not shown) . Reported concentration at 24 h?
Response: 102

====

# Measurement Protocol: SRA737 plasma and tumor concentrations in HT29 xenograft model
# Format: in vivo
# Applied Conditions: mouse, plasma, oral; HT29 xenograft; Dose 100 mg/kg; read-out: Plasma (6 h)
Reported Endpoint: concentration at 6 h (µM)
Answer format: numeric, µM implied, no suffix.

Prompt: Item under review: N#Cc1cnc(Nc2cc(NCC3CNCCO3)c(C(F)(F)F)cn2)cn1 (stereo not shown) . Reported concentration at 6 h?
Response: 5.84

====

# Measurement Protocol: SRA737 plasma and tumor concentrations in HT29 xenograft model
# Format: in vivo
# Applied Conditions: mouse, tumor, oral; HT29 xenograft; Dose 12.5 mg/kg; read-out: Tumor (6 h)
Reported Endpoint: concentration at 6 h (µM)
Value expressed in µM; do not type the unit.

Prompt: Record request: concentration at 6 h value, item N#Cc1cnc(Nc2cc(NCC3CNCCO3)c(C(F)(F)F)cn2)cn1 (stereo not shown)
Response: 19

====

# Measurement Protocol: SRA737 plasma and tumor concentrations in HT29 xenograft model
# Type: in vivo
# Applied Conditions: mouse, plasma, oral; HT29 xenograft; Dose 100 mg/kg; read-out: Plasma (24 h)
Reported Endpoint: concentration at 24 h (nM)
Report as a plain number; the unit nM is understood.

Prompt: Name the reported concentration at 24 h value associated with the molecule N#Cc1cnc(Nc2cc(NCC3CNCCO3)c(C(F)(F)F)cn2)cn1 (stereo not shown) [SRA737]
Response: 1670

====

# Measurement Protocol: SRA737 plasma and tumor concentrations in HT29 xenograft model
# Type: in vivo
# Applied Conditions: mouse, tumor, oral; HT29 xenograft; Dose 6.25 mg/kg; read-out: Tumor (6 h)
Reported Endpoint: concentration at 6 h (µM)
Answer in µM, number only, no unit symbol.

Prompt: Look at this molecule and give its reported concentration at 6 h. N#Cc1cnc(Nc2cc(NCC3CNCCO3)c(C(F)(F)F)cn2)cn1 (stereo not shown) [SRA737]
Response: 4.01
